Tested on: HT-29
Experiment: NCI tumour cell line growth inhibition, 48 h
The source made the active and inactive calls. Rule as the data show it: active = GI50 up to about 1.1 µM and inactive = higher.
Reply using exactly one outcome from YES for active, NO for inactive

Answered cases to consult:
> print(dat)
                                   molecule  answerlabel
1  COc1ccc(-c2c(C#N)c(N)n(C3OCC(O)C(O)C3O)c(=S)c2C#N)cc1 (configuration not stated)           NO
2  O=C1c2ccccc2CC1C1(O)C(=O)Nc2c(Cl)cc(Cl)cc21 (configuration not stated)           NO
3  Cc1c(C)c2c(c(N)c1C#N)C(=O)N(NC(=S)Nc1ccccc1)C2=O           NO
4  O=C1/C(=C/c2cccs2)NC(=S)N1CN1CCCC(CO)C1 (configuration not stated)           NO
5  N=c1c2c3n(c4c(=O)n(-c5ccccc5)c(=S)n(c(=O)n1-c1ccccc1)c24)CCCCC3           NO
6  CC1C(=O)N(C)C2(CO)C(=O)O[C@H](C)C12O (some centres not stated)           NO
7          Cc1cccc(C)c1NC(=O)CCC(=O)NC(N)=S           NO
8                 Oc1ccc(SCc2cc(O)ccc2O)cc1           NO

## Task Which outcome was assigned to CC(=O)OCC1=C(CCC#N)N2C(=O)C(NC(=O)Cc3cccs3)C2[S+]([O-])C1 (configuration not stated) in this test?
## Result NO

## Task Could you please tell me the result logged for "Nn1c(Sc2nc3ccccc3c(=O)n2N)nc2ccccc2c1=O" in this assay?
## Result NO

## Task For "CCCCc1c2c(nc3c1CCCC3=O)CCCC2" , which call appears in the assay record?
## Result NO

## Task # lookup: test call for "COc1cc2c(c3nc4ccccc4nc13)-c1ccc(SC)c(=O)cc1[C@@H](NC(C)=O)CC2"
## Result YES

## Task Please indicate how the test categorized "Cc1ccc(S(=O)(=O)N(CCNC(=O)c2cccc(O)c2O)c2cc3c4c(c2)Oc2cccc5c2C4(C)c2c(cccc2O3)O5)cc1" .
## Result NO

## Task Recorded test call requested for CC1(C)S[C@@H]2[C@H](NC(=O)C3(N)CCCCC3)C(=O)N2[C@H]1C(=O)O [CYCLACILLIN]
## Result NO

## Task Which outcome was entered for the molecule "CCCCCCCCCCCCOCCCCCCCCC/C=C/c1ccc2c(c1)OCCOCCOCCOCCO2" in this test?
## Result NO

## Task Look up the recorded call for "O=C1CCCCC(=O)Nc2ccccc2N1" in this test.
## Result NO

====

# GI50 annotations
System: KM-20L2
Assay: NCI tumour cell line growth inhibition, 48 h
The source made the active and inactive calls. Cut-off read from the data, not from the text of the source: active = GI50 up to about 1.1 µM and inactive = higher.

Field: example entries. Status: answers known.
> print(dat)
                                   compound        valuereported
1  NC(=O)c1csc(C2OC(CO)C(O)C2O)n1 (configuration not stated)   43.8 µM (inactive)
2                     Cc1ccc(Oc2ccccc2N)cc1   12.7 µM (inactive)
3  CC(=O)OCC1=C(CCC#N)N2C(=O)C(NC(=O)Cc3cccs3)C2[S+]([O-])C1 (configuration not stated)  > 100 µM (inactive)
4          C#CC[C@]12CC(=O)CC[C@H]1CC(=O)C2  > 100 µM (inactive)
5  O=C1C(Cl)N(c2cccc([N+](=O)[O-])c2)C1c1c[nH]c2ccccc12 (configuration not stated)   19.9 µM (inactive)

## Task Quick one: GI50 for c1ccc2c(c1)N=C(c1ccc3ccccc3c1)CC(c1cccc3ccccc13)S2 (configuration not stated) ?
## Result 43.5 µM (inactive)

## Task Given "C[P+]1(c2ccccc2)CCCCC1" , state its recorded GI50.
## Result > 100 µM (inactive)

Every entry's value here was drawn from ChEMBL document CHEMBL1201862.
